- testedSystem: T1, Recombinant Human DLL4 (delta-like protein 4) (human, UniProt Q9NR61 27-524)
- T1 construct: also called rHuman DLL4; Delta-like 4
- experimentalProtocol: ELISA, DLL4 coated on plate, Fab at 100 nM
Recorded ELISA Signal-blank (100 nM Fab), one value per entry.
propertyLabel: ELISA Signal-blank (100 nM Fab)

INSERT INTO assay_data (binder, propertylabel, val) VALUES
  ('Fab VH5-51_IGHD5-18*01>3_IGHJ4*01 G100K/G104T G24T/S28R/G35V & V3-4_IGLJ1*01 V91L/S96P S52G (Fab, V domains shown, Fab expressed in E. coli; heavy chain vector adds CH1 with His6 and Flag tags, light chain vector adds lambda CL; also called H:KT TRV & L:LP S52G) VH: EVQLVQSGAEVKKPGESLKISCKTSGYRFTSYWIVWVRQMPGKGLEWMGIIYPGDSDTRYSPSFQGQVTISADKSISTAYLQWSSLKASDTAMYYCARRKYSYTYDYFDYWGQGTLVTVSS VL: QTVVTQEPSFSVSPGGTVTLTCGLSSGSVSTSYYPSWYQQTPGQAPRTLIYGTNTRSSGVPDRFSGSILGNKAALTITGAQADDESDYYCLLYMGPGISYVFGTGTKVTVL', 'ELISA Signal-blank (100 nM Fab)', 0.53),
  ('Fab VH5-51_IGHD5-18*01>3_IGHJ4*01 G100K/G104T G24T/S28R/G35V & V3-4_IGLJ1*01 V91L/S96P T53S (Fab, V domains shown, Fab expressed in E. coli; heavy chain vector adds CH1 with His6 and Flag tags, light chain vector adds lambda CL; also called H:KT TRV & L:LP T53S) VH: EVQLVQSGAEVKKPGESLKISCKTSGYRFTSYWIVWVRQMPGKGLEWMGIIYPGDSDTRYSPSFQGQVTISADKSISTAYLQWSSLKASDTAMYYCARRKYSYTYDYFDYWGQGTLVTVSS VL: QTVVTQEPSFSVSPGGTVTLTCGLSSGSVSTSYYPSWYQQTPGQAPRTLIYSSNTRSSGVPDRFSGSILGNKAALTITGAQADDESDYYCLLYMGPGISYVFGTGTKVTVL', 'ELISA Signal-blank (100 nM Fab)', 0.18),
  ('Fab VH5-51_IGHD5-18*01>3_IGHJ4*01 G100K/G104T G24T/S28R/G35V & V3-4_IGLJ1*01 V91L/S96P S52D (Fab, V domains shown, Fab expressed in E. coli; heavy chain vector adds CH1 with His6 and Flag tags, light chain vector adds lambda CL; also called H:KT TRV & L:LP S52D) VH: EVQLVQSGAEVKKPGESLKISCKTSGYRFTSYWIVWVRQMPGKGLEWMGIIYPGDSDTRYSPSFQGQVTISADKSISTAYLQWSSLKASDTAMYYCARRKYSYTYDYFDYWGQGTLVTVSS VL: QTVVTQEPSFSVSPGGTVTLTCGLSSGSVSTSYYPSWYQQTPGQAPRTLIYDTNTRSSGVPDRFSGSILGNKAALTITGAQADDESDYYCLLYMGPGISYVFGTGTKVTVL', 'ELISA Signal-blank (100 nM Fab)', 0.39);
